Measured values drawn from patent US20020058247A1 for this set.

Molecular target: T1, Full length recombinant HBcAg (rHBcAg) encompassing residues 1-183 (hepatitis B virus, UniProt P03146 1-183)
T1 construct: range 1-183; also called hepatitis B virus core antigen
T1 sequence (P03146 whole entry, the tested form may be a part): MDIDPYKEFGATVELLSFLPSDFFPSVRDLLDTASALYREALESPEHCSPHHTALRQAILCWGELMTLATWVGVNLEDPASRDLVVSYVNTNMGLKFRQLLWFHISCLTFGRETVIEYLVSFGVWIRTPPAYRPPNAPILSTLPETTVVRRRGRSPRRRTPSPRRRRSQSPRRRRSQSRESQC
Assay: competition EIA, HBcAg coated 1 ug/ml, peptide 100 ug/ml before mAb 4-2 (competitor); OD of bound mAb
parameterMeasured: OD at 490 nm (OD)
Give your result in OD as a bare value.

binder | reportedMeasurement
QQKPGQPPKLLIKYASNLES [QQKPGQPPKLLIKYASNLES (SEQ. ID. No. 19)] | 0.394
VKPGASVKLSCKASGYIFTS (also called Peptide # 2; Pept. #2) [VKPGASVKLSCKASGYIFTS (SEQ. ID. No. 5)] | 0.083
ISCRASQSVSTSSYSYMHWY [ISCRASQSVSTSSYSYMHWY (SEQ. ID. No. 17)] | 0.37
VKPGASVKISCKASGYSFTG (also called Peptide # 25) [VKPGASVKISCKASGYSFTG (SEQ. ID. No. 28)] | 0.274

Which OD at 490 nm value is on record for LAVSLGQRATISCRASQSVS [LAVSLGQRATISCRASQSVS (SEQ. ID. No. 16)] ?
0.345

Now give it for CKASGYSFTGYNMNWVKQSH (also called Peptide # 26) [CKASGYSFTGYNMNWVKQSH (SEQ. ID. No. 29)] too.
0.28
